biological target: SCRIB_2, Q14160; assay: holdup assay; design: key: below the threshold = too weak to quantify, mostly under pKd 3.1 to 4; conditions: plain residues with an end cap or a label only (N-terminal biotin on a linker: ahx)
Sequence (Q14160 857-960): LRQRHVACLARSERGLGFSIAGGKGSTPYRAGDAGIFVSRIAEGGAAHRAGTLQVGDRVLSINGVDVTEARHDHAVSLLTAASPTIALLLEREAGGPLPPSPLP
metric: pKd

HNAFLSVTTV [PDZRN4, Q6ZMN7]    3.71
LSDPSVSTVV [GRIN1, Q05586;Q05586-2]    below the threshold
PSASCAVTAA [PDLIM4, P50479;P50479-2]    below the threshold
TVICWPGSLV [LNX2, Q8N448]    3.65

Query: Record request: pKd value, item GYDWGPATDL [TJP3, O95049]
Reply: 3.78

Query: Record request: pKd value, item RRRKRKRTYL [HPV49-L2, P36762]
Reply: below the threshold

Query: Record request: pKd value, item NRKREIFSNF [NHERF2, Q15599]
Reply: below the threshold

Query: Record request: pKd value, item ESLLLGPSNF [SHROOM4, Q9ULL8]
Reply: below the threshold

Query: Record request: pKd value, item SDSSGQEYSL [KCTD3, Q9Y597]
Reply: below the threshold

Query: Record request: pKd value, item RAVEEEESRF [PSCDBP, O60759]
Reply: below the threshold
